# measured-on: FABP1
# measurement-protocol: pooled miR-30 sensor sort-seq; sequence = guide strand; also: reference of the scale not given here
# run-parameters: shRNA
The entries below come with measured sensor-assay potency score (higher = more potent) values attached.
Give the value as a plain number.

Solved entries (count: 4):
>>> df
         polymer_sequence  readout_value
0  TTATTGTCACCTTCCAACTGAA         -0.686
1  TTGAGTTCGGTCACAGACTTGA        -0.0189
2  TTTCCTGGCTCTGCAGTTGGTA         -0.913
3  TTCCTGGCTCTGCAGTTGGTAC          -1.83

Exercise: Please look up its sensor-assay potency score (higher = more potent): `TTTTGAAAGTTGTCACCAGTTT`
Solution: -0.569

Exercise: Please look up its sensor-assay potency score (higher = more potent): `TTTTTGAAAGTTGTCACCAGTT`
Solution: -0.333

Exercise: Please look up its sensor-assay potency score (higher = more potent): `AACCACTGTCTTGACTTTCTCC`
Solution: -0.372

Exercise: Please look up its sensor-assay potency score (higher = more potent): `TCCAACTGAACCACTGTCTTGA`
Solution: -0.148
